Provide the reported z-score of each item.
Experiment: S. cerevisiae RM11-1a growth modifiers, primary screen, strain RM11-1a, OD600, basal, 24 h (AID 1177);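 also: cultures grown under basal conditions with no added stressor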
Settings: OD600, 24 h, higher = more signal, called active from +8 up or from −8 down
Answers are plain numbers.

sample smiles | reading
CC(C)CON=C1C[C@@H](O)[C@@H](O)[C@@H]2[C@@H]3C(=O)N(C[C@@H]4CCCO4)C(=O)[C@@H]3CC[C@@H]12 | -0.541

Parameter requested: z-score. Apply to each item below.
1. O=C1[C@H]2[C@H]3[C@H](O)[C@H](O)CC(=NOC[C@@H](O)COCc4ccco4)[C@@H]3CC[C@H]2C(=O)N1C[C@@H]1CCCO1
2. CC(=O)OC[C@H]1O[C@H](C#Cc2ccccc2)C=C[C@@H]1OC(C)=O
3. CCCNC(=O)OC[C@H]1O[C@H](CCON=C(C)CCN2CCc3nc(CC)c(CC)cc3C2)C=C[C@@H]1Oc1ccc(OC)cc1

Ans:
1.1
-0.14
0.02

----------
Test: E. coli growth modulation, two-sided OD650, primary screen, E. coli filamentation project, strain DRC41, 24 h (AID 1093);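 also: MC1000 strain lacking acrAB efflux and sulA so SOS filamentation is blocked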
Conditions: OD650, 24 h, higher = more signal, called active from +8 up or from −8 down
The source made the active and inactive calls.
Provide the recorded z-score for the entries that follow.

compound | z-score
CC(C)=NO[C@H](C)c1cn([C@H](CO)Cc2ccccc2)nn1 | 0.208 (inactive)
C[n+]1ccc(-c2ccc(CO)cc2)cc1 | 0.917 (inactive)
CO[C@@H]1COC(=O)CC=C[C@H](C)[C@H](OC)COC(=O)[C@H](C)NC(=O)CC=C[C@H]1C | 1.2 (inactive)
CCOC(=O)[C@H](CC(C)C)NC(=O)CCC1CC(OC(=O)NCCc2ccc(F)cc2)CC2(CCCC(COC(=O)NCCC(C)C)O2)O1 (some centres undefined) | -0.917 (inactive)
CC(CCN1CCCc2nc(C)c(C)cc21)=NO[C@@H](C)c1cc(-c2c(C)cc(C)cc2C)no1 | 1.74 (inactive)

Please report z-score for every entry that follows.
1. CCOC(=O)NN=C1C[C@@H](O)[C@@H](O)[C@@H]2[C@@H]3C(=O)N(c4cccc(Oc5ccccc5)c4)C(=O)[C@@H]3CC[C@@H]12
2. COC(=O)CC=C[C@@H](C)[C@@H](C=NO[C@@H](C)c1cn([C@H](CO)Cc2ccccc2)nn1)OC

Ans:
1. 0.205 (inactive)
2. -0.673 (inactive)

Batch of 2 compounds: report z-score for each.
1. CC(C)(C)N1C(=O)[C@H]2[C@H]3[C@H](O)C=CC(=O)[C@@H]3CC[C@H]2C1=O
2. CO[C@@H]1COC(=O)[C@@H](C)COC(=O)[C@@H](C)NC(=O)CC=C[C@@H]1C

Ans:
1. 0.208 (inactive)
2. -0.801 (inactive)

----------
Tested on: XIP peptide (Xip251-270) binding
Assay: small-molecule binders of XIP peptide, primary screen, biochemical, small-molecule microarray, fluorescence 635/667 nm, 0.1 µg/mL protein (AID 1182)
Conditions: fluorescent protein binding, 635 nm, higher = more signal, called active from +8 up or from −8 down
Classification scheme (composite z-score): low value (below -0.06), medium value (-0.06 to below 0.3), high value (0.3 or more)

Here's what some known entries look like.
molecule | group
CO[C@@H]1C=CCC(=O)N[C@@H](C)C(=O)OC[C@@H](OC)[C@H](C)CCCC(=O)OC[C@H]1C | low value
COC(=O)[C@H](C)NC(=O)CCC1CC(OC(=O)NCCc2ccc(F)cc2)CC2(CCCC(COC(=O)NCc3cccc(C(F)(F)F)c3)O2)O1 (some centres undefined) | high value
CCOC(=O)[C@H](CC(C)C)NC(=O)CCC1CC(OC(=O)NCCc2ccc(F)cc2)CC2(CCCC(COC(=O)NCC3CCCCC3)O2)O1 (some centres undefined) | medium value
CCOC(=O)[C@H](CC(C)C)NC(=O)CCC1CC(OC(=O)NCc2cccc3ccccc23)CC2(CCCC(COC(=O)NCc3ccncc3)O2)O1 (some centres undefined) | high value

Q: Which class is correct for the following molecule? `O=C1C[C@@H](O)[C@@H](O)[C@@H]2[C@@H]3C(=O)N(Cc4ccc5c(c4)OCO5)C(=O)[C@@H]3CC[C@H]12`
Ans: medium value

Q: Category of `O=C1C=C[C@@H](O)[C@@H]2[C@@H]3C(=O)N(c4ccc(F)cc4F)C(=O)[C@@H]3CC[C@@H]12` , please.
Ans: medium value

Q: Category lookup for the molecule `C[C@@H](c1ccccc1)N1C(=O)[C@H]2[C@H]3[C@H](O)[C@H](O)CC(=NOCc4ccccc4)[C@H]3CC[C@H]2C1=O`
Ans: medium value

Q: Classify this molecule: `CO[C@@H]1COC(=O)[C@H](CCSC)NC(=O)CC=C[C@@H](C)COC(=O)CCC[C@H]1C`
Ans: high value

Q: Sort `CCOC(=O)CCN1C(=O)[C@H]2[C@H]3[C@H](O)[C@H](O)CC(=NOCC(C)C)[C@H]3CC[C@H]2C1=O` into one of the categories.
Ans: medium value

Q: Exam item: assign CCOC(=O)[C@H](CC(C)C)NC(=O)CCC1CC(OC(=O)NCc2cccc3ccccc23)CC2(CCCC(COC(=O)NCCOC)O2)O1 (some centres undefined) to the correct category.
Ans: low value

Q: Which band does COc1cccc([C@H]2Oc3ccc(OC)cc3C(=NOC(C)CN3CCCCc4nc(C)c(C)cc43)[C@@H]2O)c1 (some centres undefined) fall in?
Ans: high value

Q: Which category fits this record: `CCOC(=O)NN=C1C[C@@H](O)[C@@H](O)[C@@H]2[C@@H]3C(=O)N(C(C)(C)C)C(=O)[C@@H]3CC[C@H]12`
Ans: low value

Q: Any idea which band `O=C(NN=C1C[C@@H](O)[C@@H](O)[C@@H]2[C@@H]3C(=O)N(C[C@@H]4CCCO4)C(=O)[C@@H]3CC[C@@H]12)OCc1ccccc1` is in?
Ans: high value

Q: Dear colleague, I would appreciate it if you could identify the bin for `Cc1cc2c(nc1C)CCCN2CC(O)CN1CCCc2nc(C)c(C)cc21` and reply at your convenience.
Ans: high value

Q: Assign a bin to `CCCNC(=O)OC[C@H]1O[C@H](c2ccccc2)C=C[C@@H]1Oc1ccc(OC)cc1`
Ans: low value

Q: Form field 'band' for `O=C1[C@H]2[C@H]3[C@H](O)[C@H](O)CC(=NOC[C@@H](O)COCc4ccco4)[C@H]3CC[C@H]2C(=O)N1Cc1ccccc1`
Ans: low value

Q: Where would `COc1ccc(COC(=O)NN=C2C[C@@H](O)[C@@H](O)[C@@H]3[C@@H]4C(=O)N(Cc5ccccc5)C(=O)[C@@H]4CC[C@H]23)cc1` land among the classes by reported composite z-score?
Ans: medium value

Q: Form field 'band' for `O=c1n(-c2ccccc2)c(=O)n2n1CC[C@@H]1C(=NOCc3ccccc3)[C@H]3O[C@H]3[C@@H](O)[C@@H]12`
Ans: low value

Q: Class for `CON=C(C)CCC(=O)OC[C@H]1O[C@H](c2ccccc2)C=C[C@@H]1Oc1ccc(OC)cc1` ?
Ans: medium value
